- Tested on: MCH58 fibroblasts
- test summary: Glucose versus galactose cell growth screen (metabolic state-dependent lethality)
- applied conditions: approximately 10 μM compound, 72 hours; log10 fold change of normalized cell number in glucose versus galactose
Structures can show the parent of a compound that is named as a salt.
measurement kind: Sglu/gal (log10 fold change) Score

>>> numeric_value("CC1(C)C(=O)C=C[C@]2(C)[C@H]3CC[C@@]4(C)[C@H](c5ccoc5)OC(=O)[C@H]5O[C@]54[C@]3(C)C=C[C@@H]12 [7-desacetoxy-6,7-dehydrogedunin]")
"−0.22"
>>> numeric_value("COc1cc2c(cc1OC)[C@@H]1C(=O)c3ccc4c(c3O[C@@H]1CO2)CC(C(C)C)O4 (stereo partly drawn) [Beta-dihydrorotenone]")
0.85
>>> numeric_value("C[n+]1c2cc(N)ccc2cc2ccc(N)cc21.[Cl-] [acriflavinium hydrochloride]")
"−0.29"
>>> numeric_value("CC(=O)O[C@H]1CC[C@@]2(C)[C@H](CC[C@@H]3[C@@H]2CC[C@]2(C)[C@@H](C4=CC(=O)OC4)[C@@H](OC(C)=O)C[C@]32O)C1 [gitoxigenin diacetate]")
"−0.21"
>>> numeric_value("[H]/N=C(\\N/C(=N/[H])NCCCCCCNC(=N)NC(=N)Nc1ccc(Cl)cc1)Nc1ccc(Cl)cc1 [Chlorhexidine]")
0.16
>>> numeric_value("CC(=O)O[C@@H]1C[C@@]2(C)[C@H](c3ccoc3)C[C@H]3O[C@]32[C@]2(C)C(=O)C(O)=C3C(C)(C)C(=O)C=C[C@]3(C)[C@@H]12 [anthothecol]")
"−0.30"
>>> numeric_value("C=C1C(=O)O[C@H]2C[C@@H]1C(OC(C)=O)C/C(C)=C/CC/C(C)=C/CC[C@@]2(C)O (some centres unmarked) [crassin acetate]")
"−0.35"
>>> numeric_value("COc1cc2c(cc1OC)C1C(=O)c3c(cc4c(c3O)C=CC(C)(C)O4)OC1CO2 (stereo not drawn) [Beta-toxicarol]")
0.82
>>> numeric_value("CCCCCCCCCCCCCCCC[N+](C)(C)CCN(Cc1ccc(OC)cc1)c1ncccn1 [Thonzonium bromide]")
0.38
>>> numeric_value("COc1ccccc1OCCNCC(O)COc1cccc2[nH]c3ccccc3c12 (centres unmarked) [Carvedilol]")
0.15
>>> numeric_value("N=C(N)c1ccc(OCCCCCOc2ccc(C(=N)N)cc2)cc1 [Pentamidine isethionate]")
0.24
>>> numeric_value("CC[n+]1c(-c2ccccc2)c2cc(N)ccc2c2ccc(N)cc21 [homidium bromide]")
"−0.54"
>>> numeric_value("COc1ccc(Cc2nccc3cc(OC)c(OC)cc23)cc1OC [Papaverine hydrochloride]")
0.30
>>> numeric_value("Cc1cc(C(C)(C)CC(C)(C)C)ccc1OCCOCC[N+](C)(C)Cc1ccccc1.[Cl-] [Methyl benzethonium chloride]")
0.80

* * *

- Tested on: Trypanosoma brucei
- test summary: Effectiveness against Trypanosoma brucei
- Format: cell-based
- applied conditions: kills Trypanosoma brucei; read-out: ED50 (the source's name)
Counter-ions that a name gives are not always drawn.
measurement kind: EC50 (nM)

>>> numeric_value("Cc1cccc(CN2CCN(C(c3ccccc3)c3ccc(Cl)cc3)CC2)c1 (racemic) [Meclizine, meclizine hydrochloride]")
1410

* * *

- System: MCH58 fibroblasts
- test summary: Glucose versus galactose cell growth screen (metabolic state-dependent lethality)
- applied conditions: approximately 10 μM compound, 72 hours; log10 fold change of normalized cell number in glucose versus galactose
Structures can show the parent of a compound that is named as a salt.
measurement kind: Sglu/gal (log10 fold change) Score

>>> numeric_value("CN1CCC[C@@H]1CCO[C@](C)(c1ccccc1)c1ccc(Cl)cc1 [Clemastine fumarate]")
0.19
>>> numeric_value("CN(C/C=C/c1ccccc1)Cc1cccc2ccccc12 [Naftifine hydrochloride]")
0.19
>>> numeric_value("COc1cc2c(cc1OC)[C@@H]1C(=O)c3ccc(O)c(CC=C(C)C)c3O[C@@H]1CO2")
0.33
>>> numeric_value("CC(C)n1c(/C=C/C(O)CC(O)CC(=O)O)c(-c2ccc(F)cc2)c2ccccc21 (stereo not shown) [Fluvastatin sodium salt]")
0.16
